System: AncSZ;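 further: 11-residue human phosphosite peptides and single-mutation variants displayed on the E. coli surface, counted by deep sequencing, each peptide's frequency after selection divided by its frequency in the unselected input library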;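 further: frequency after pTyr selection over input frequency; kinase dosed for 20-30% of maximal phosphorylation in three min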
assay.overview: phosphorylation enrichment, bacterial display (enrichment ratio); higher = better substrate or ligand; peptides without Tyr show the background
Entries annotated with measured phosphorylation enrichment
measurement.type: phosphorylation enrichment

- KKCTRYIDCDL [ASPA_Y64]: 0.798
- VLTSKHRGGGG [HBA1_Y141_Y141H]: 0.486
- VGTKRYVAPEV [ACVRL1_Y375_M376V]: 0.61
- HRAVEYLLMGI [RAD23A_Y197_T200M]: 0.976
- YRVDCYKNFVA [FHL1_Y213_C209R]: 0.984
- ALAAPYVLFPG [CEFIP_Y1332_YF]: 0.775
- SSNLYYRCLTA [CNGA3_Y169_W171C]: 1.05
- ACCLLYRGDVV [TUBA4A_Y319]: 0.947
- GVTLLCFGRFN [ADGRD1_Y85_Y85C_YF]: 1.14
- LSQAKYQIRFR [CRLF1_Y272_F268S_YF]: 0.933
- LEEFQYIGELQ [MSH2_Y856_S860L]: 1.92
- EKKDLYKAGEQ [CFH_Y1008_V1007L]: 0.705
- SWSTSYSGYRY [NKAPL_Y91]: 0.825
- KASVDYIRKLQ [MITF_Y360]: 0.765
